# system: human H3 receptor (Homo sapiens, UniProt Q9Y5N1)
# Sequence (Q9Y5N1 whole entry): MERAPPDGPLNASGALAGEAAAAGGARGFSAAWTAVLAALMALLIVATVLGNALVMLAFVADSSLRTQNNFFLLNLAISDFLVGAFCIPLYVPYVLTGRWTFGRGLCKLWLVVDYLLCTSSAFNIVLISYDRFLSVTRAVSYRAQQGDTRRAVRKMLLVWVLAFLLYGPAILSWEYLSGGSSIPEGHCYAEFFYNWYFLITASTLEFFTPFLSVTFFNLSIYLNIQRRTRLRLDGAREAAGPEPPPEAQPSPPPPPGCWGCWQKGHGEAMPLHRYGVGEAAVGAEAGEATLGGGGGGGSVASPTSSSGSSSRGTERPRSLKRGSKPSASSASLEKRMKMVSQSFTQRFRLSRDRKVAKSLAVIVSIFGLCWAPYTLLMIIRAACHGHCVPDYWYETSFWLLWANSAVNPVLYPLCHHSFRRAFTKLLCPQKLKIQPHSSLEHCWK
# assay.remarks: H3 antagonist activity / inhibition (IC50)
# Type: biochemical
# condition.notes: text of b259; read-out: IC50, human H3 antagonist
# Text: In one aspect, H3 affinity (Ki) and inhibition (IC50) can be determined in 5-point concentration response curves. Using data obtained from such methods, SAR can be established.
measured.parameter: pIC50
Numbers only, as −log10 of the molar value.

Task item: What value of pIC50 has been recorded for this entry: `CN(C)CCCOc1ccc(CCNC(=O)c2cc(Br)c[nH]2)cc1Br`
Reply: 5.63

====

# system: UniProtKB Q9Y5N1
# assay.remarks: H3 antagonist activity / inhibition (IC50)
# Assay type: biochemical
# condition.notes: 5-point concentration response curves; read-out: H3 IC50
measured.parameter: IC50 (nM)
Answers are plain numbers, in nM.

Reference set (2 entries):
compound	recorded.result
CN(C)CCCOc1ccc(CCNC(=O)c2ccc(Br)o2)cc1Br	4800
O=C(NCc1ccc(OCCN2CCCC2)c(Cl)c1)c1cc(Br)cs1	2400

# map each compound to its IC50
1. CN(C)CCOc1ccc(CCNC(=O)c2ccc[nH]2)cc1Br
2. O=C(NCCc1ccc(OCCN2CCCC2)c(Br)c1)c1ccc(Br)o1
3. CN(C)CCCOc1ccc(CCNC(=O)c2cc(Br)cs2)cc1Br
4. CN(C)CCOc1ccc(CCNC(=O)c2ccc(Br)o2)cc1Br
5. O=C(NCCc1ccc(OCCN2CCCC2)c(Br)c1)c1cc(Br)c[nH]1
6. O=C(NCCc1ccc(OCCN2CCCC2)c(Br)c1)c1cccc(C(F)(F)F)c1
7. CN(C)CCCOc1ccc(CCNC(=O)c2cc(Br)c[nH]2)cc1Br

Reply:
1. 3400
2. 390
3. 3600
4. 5900
5. 430
6. 980
7. 2400

# map each compound to its IC50
1. CN1CCCC(COc2ccc(CCNC(=O)c3cc(Br)cs3)cc2Br)C1 (centres unmarked)
2. O=C(NCCc1ccc(OCCN2CC[C@@H](F)C2)c(Br)c1)c1cc(Br)cs1
3. O=C(NCCc1ccc(OCCN2CCCC2)c(Br)c1)c1ccc[nH]1
4. CN(C)CCOc1ccc(CCNC(=O)c2cc(Br)cs2)cc1Br
5. CN1CCCC(COc2ccc(CCNC(=O)c3cccn3C)cc2Br)C1 (centres unmarked)
6. O=C(NCCc1ccc(OCCN2CCCC2)c(Br)c1)c1nccs1

Reply:
1700
2100
380
1500
2100
260

# map each compound to its IC50
1. O=C(NCCc1ccc(OCCN2CCCC2)c(Br)c1)c1cccc(C(F)(F)F)n1
2. O=C(NCCc1ccc(OCCN2CCCC2)c(Br)c1)c1nnc[nH]1
3. CN(C)CCOc1ccc(CCNC(=O)c2cc(Br)c[nH]2)cc1Br

Reply:
1: 560; 2: 970; 3: 3700

# map each compound to its IC50
1. Cn1cccc1C(=O)NCCc1ccc(OCCN2CCCC2)c(Br)c1
2. O=C(NCCc1ccc(OCCN2CC[C@H](F)C2)c(Br)c1)c1cc(Br)cs1
3. O=C(NCCc1ccc(OCCN2CCCC2)c(Br)c1)c1cnco1
4. CN(C)CCCOc1ccc(CCNC(=O)c2cccn2C)cc1Br
5. O=C(NCCc1ccc(OCCN2CCCC2)c(Cl)c1)c1cc(Br)cs1

Reply:
1: 390; 2: 2500; 3: 83; 4: 3900; 5: 350

Source of measurements: patent US20100035929A1
